settings: 298.15 K; 101.33 kPa; Liquid; Sing-around technique in a fixed-path interferometer

- compound: "CCCCCCCCCC"
  speed of sound [m/s]: 1235
- compound: "CCCCCCCCCCCC"
  speed of sound [m/s]: 1278
- compound: "CCCC(C)O (centres undefined)"
  speed of sound [m/s]: 1232
- compound: "CCCCCCCC"
  speed of sound [m/s]: 1173
